tested on: FXR:RXRa (NR concentration 270 nM, RXRa partner concentration 90 nM); test: PBM binding z-score (relative to random genomic background probes); higher = stronger binding; sequences stand for … in GC…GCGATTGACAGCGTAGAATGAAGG
Listing of recorded PBM binding z-score by entry.
The reply should be a number, written without any unit.

Q: Field request: PBM binding z-score | item: `GCTGATAGGTCAGGTTGGTCAGCTAACGGGTACG`
Ans: 2.43

Q: Which measured PBM binding z-score value corresponds to `GCATATAGGTAATGCAAGGTGAAAGTCCGATTGT` ?
Ans: 0.366

Q: May I ask what PBM binding z-score has been recorded for `TCTTGTAGATAAGCAGGTTAAGAAAGCTGGCCAA` ?
Ans: 0.562

Q: // lookup PBM binding z-score for `GGAACGAGGACAAGTTGATAGCAGAGTTTGATGG`
Ans: 0.526

Q: # lookup: PBM binding z-score of `CCTAGTTGGTCCGGAGGTCACACACCGGATATGA`
Ans: 3.5

New cases:
Q: Requested field: PBM binding z-score. Item: `ATATGTAGGTTACATCCGGGTCGTTCAGGCTATG`
Ans: 1.06

Q: Quick one: PBM binding z-score for `TCTTCTAGATCAATAGAGGTTAAGAAAGTGCGCT` ?
Ans: 0.907
